Ki overview
EXPERIMENTAL_SYSTEM: hCA XII (Homo sapiens, UniProt O43570)
Construct: made in house
Sequence (O43570 25-354): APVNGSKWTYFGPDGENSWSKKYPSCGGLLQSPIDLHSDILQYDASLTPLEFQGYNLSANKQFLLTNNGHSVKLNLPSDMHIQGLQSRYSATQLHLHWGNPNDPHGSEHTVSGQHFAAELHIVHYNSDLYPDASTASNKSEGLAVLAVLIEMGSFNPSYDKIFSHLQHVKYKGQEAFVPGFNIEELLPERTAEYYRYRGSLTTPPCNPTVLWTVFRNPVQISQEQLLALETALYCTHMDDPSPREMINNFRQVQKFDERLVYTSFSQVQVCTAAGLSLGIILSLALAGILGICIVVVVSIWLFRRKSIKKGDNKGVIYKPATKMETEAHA
ASSAY_INFO: stopped-flow CO2 hydrase assay, hCA XII
Assay type: biochemical
CONDITION_SET: mean from three determinations, errors 5–10%

Please review the following examples before continuing.
COC(=O)c1ccccc1CCc1ccccc1
> 100 µM
CCCC[S+]([O-])c1ccccc1C(N)=O (stereo not drawn)
> 100 µM
CSc1ccccc1C(N)=O
> 100 µM

Any idea what its Ki is? The molecule is NC(=O)c1ccccc1NC(=O)Cc1ccccc1 > 100 µM

Any idea what its Ki is? The molecule is CCCS(=O)(=O)c1ccccc1C(N)=O > 100 µM

Any idea what its Ki is? The molecule is O=C(O)c1ccccc1NCc1ccccc1 > 100 µM

Any idea what its Ki is? The molecule is CCC[S+]([O-])c1ccccc1C(N)=O (stereo not drawn) > 100 µM

====

EXPERIMENTAL_SYSTEM: hCA II (Homo sapiens)
Construct: made in house
ASSAY_INFO: stopped-flow CO2 hydrase assay, hCA II
Assay type: biochemical
CONDITION_SET: mean from three determinations, errors 5–10%
pKi: −log10 of the molar value.
PARAMETER: pKi

Please review the following examples before continuing.
COC(=O)c1ccccc1OCc1ccccc1
< 4.00
CNC(=O)c1ccccc1S(=O)(=O)Cc1ccccc1
4.17
CC(=O)c1ccccc1SCc1ccccc1
< 4.00

Any idea what its pKi is? The molecule is CCCCC[S+]([O-])c1ccccc1C(=O)OC (centres unmarked) < 4.00

Any idea what its pKi is? The molecule is COC(=O)c1ccccc1CCc1ccccc1 < 4.00

====

EXPERIMENTAL_SYSTEM: hCA IX (Homo sapiens, UniProt Q16790)
Construct: made in house
ASSAY_INFO: stopped-flow CO2 hydrase assay, hCA IX
Assay type: biochemical
CONDITION_SET: mean from three determinations, errors 5–10%
pKi: −log10 of the molar value.
PARAMETER: pKi

Please review the following examples before continuing.
NC(=O)c1ccccc1SCc1ccccc1 [Compound 16]
7.34
CCCCC[S+]([O-])c1ccccc1C(N)=O (centres unmarked) [Compound 37]
4.56
COC(=O)c1ccccc1[S@@+]([O-])Cc1ccccc1 [(S)-8]
4.70
CCCS(=O)(=O)c1ccccc1C(N)=O [Compound 32]
5.64
COC(=O)c1ccccc1[S@@+]([O-])Cc1ccc(Cl)cc1 [(S)-11]
4.74
CNC(=O)c1ccccc1SCc1ccccc1 [Compound 19]
4.70
CCS(=O)(=O)c1ccccc1C(N)=O [Compound 29]
4.64
C[S+]([O-])c1ccccc1C(N)=O (centres unmarked) [Compound 25]
4.46

[I] CCCCCSc1ccccc1C(N)=O [Compound 36]
[II] CC[S+]([O-])c1ccccc1C(N)=O (centres unmarked) [Compound 28]
[III] COC(=O)c1ccccc1[S@+]([O-])Cc1ccccc1 [(R)-8]
[IV] COC(=O)c1ccccc1[S@+]([O-])Cc1ccc(Cl)cc1 [(R)-11]
Ordering: ascending pKi. Submit the labels in the order that the ranking request calls for. II, III, I, IV

====

EXPERIMENTAL_SYSTEM: hCA IX (Homo sapiens, UniProt Q16790)
Construct: made in house
ASSAY_INFO: stopped-flow CO2 hydrase assay, hCA IX
Format: biochemical
CONDITION_SET: mean from three determinations, errors 5–10%
pKi: −log10 of the molar value.
PARAMETER: pKi

[A] CNC(=O)c1ccccc1[S@+]([O-])Cc1ccccc1 [(R)-20]
[B] NC(=O)c1ccccc1[S@@+]([O-])Cc1ccccc1 [(S)-17]
[C] CCCCS(=O)(=O)c1ccccc1C(N)=O
[D] COC(=O)c1ccccc1SCc1ccc(Cl)cc1
Kindly sort the 4 molecules above from the smallest to the largest pKi. Submit the labels in the order that the ranking request calls for. A, C, B, D

[A] O=C(O)c1ccccc1[S@+]([O-])Cc1ccccc1 [(R)-5]
[B] COC(=O)c1ccccc1SCc1ccccc1
[C] CCCC[S+]([O-])c1ccccc1C(N)=O (centres unmarked)
# rank_down: sort by pKi, max first Submit the labels in the order that the ranking request calls for. A, B, C
(A: 5.85, B: 4.82, C: 4.44)

[1] CNC(=O)c1ccccc1S(=O)(=O)Cc1ccccc1
[2] O=C(O)c1ccccc1S(=O)(=O)Cc1ccccc1
Rank 1 against 2 by their pKi values and give the higher one. I would appreciate it if you answered with the label of your choice. 2
(2: 5.64, 1: 4.59)

====

pKi overview
EXPERIMENTAL_SYSTEM: hCA II (Homo sapiens, UniProt P00918)
Construct: made in house
ASSAY_INFO: stopped-flow CO2 hydrase assay, hCA II
Assay type: biochemical
CONDITION_SET: mean from three determinations, errors 5–10%
pKi: −log10 of the molar value.

Please review the following examples before continuing.
COC(=O)c1ccccc1[S@+]([O-])Cc1ccc(Cl)cc1 [(R)-11]
< 4.00
O=C(NO)c1ccccc1NCc1ccccc1
< 4.00
O=C(O)c1ccccc1[S@+]([O-])Cc1ccccc1 [(R)-5]
6.68
CS(=O)(=O)c1ccccc1C(N)=O
< 4.00

Proceed to the following item.
Any idea what its pKi is? The compound is COC(=O)c1ccccc1[S+]([O-])CC(=O)c1ccccc1 (centres unmarked) < 4.00

====

EXPERIMENTAL_SYSTEM: hCA IX (Homo sapiens, UniProt Q16790)
Construct: made in house
ASSAY_INFO: stopped-flow CO2 hydrase assay, hCA IX
Format: biochemical
CONDITION_SET: mean from three determinations, errors 5–10%
pKi: −log10 of the molar value.
PARAMETER: pKi

CCCCSc1ccccc1C(N)=O [Compound 33]
5.60

[A] CNC(=O)c1ccccc1[S@@+]([O-])Cc1ccccc1 [(S)-20]
[B] CC(=O)c1ccccc1SCc1ccccc1 [Compound 1]
# query: argmin of pKi over A and B I would appreciate it if you answered with the label of your choice. A

[P] COC(=O)c1ccccc1S(=O)(=O)Cc1ccccc1 [Compound 9]
[Q] O=C(O)c1ccccc1[S@@+]([O-])Cc1ccccc1 [(S)-5]
# query: argmin of pKi over P and Q I would appreciate it if you answered with the label of your choice. P

====

EXPERIMENTAL_SYSTEM: hCA II (Homo sapiens)
Construct: made in house
ASSAY_INFO: stopped-flow CO2 hydrase assay, hCA II
Type: biochemical
CONDITION_SET: mean from three determinations, errors 5–10%
Description: An Applied Photophysics stopped-flow instrument has been used for assaying the CA catalysed CO2 hydration activity. […] The CO2 concentrations ranged from 1.7 to 17 mM for the determination of the kinetic parameters and inhibition constants. In particular, CO2 was bubbled in distilled deionised water for 30 min till saturation. […] The uncatalyzed rates were determined in the same manner and subtracted from the total observed rates. […]
pKi: −log10 of the molar value.
PARAMETER: pKi

COC(=O)c1ccccc1SCc1ccc(Cl)cc1
4.34
COC(=O)c1ccccc1SCc1ccccc1
4.12

[I] NC(=O)c1ccccc1[S@@+]([O-])Cc1ccccc1 [(S)-17]
[II] CNC(=O)c1ccccc1SCc1ccccc1
# query: argmin of pKi over I and II I would appreciate it if you answered with the label of your choice. II

====

EXPERIMENTAL_SYSTEM: hCA I (Homo sapiens)
Construct: made in house
Sequence (P00915 whole entry): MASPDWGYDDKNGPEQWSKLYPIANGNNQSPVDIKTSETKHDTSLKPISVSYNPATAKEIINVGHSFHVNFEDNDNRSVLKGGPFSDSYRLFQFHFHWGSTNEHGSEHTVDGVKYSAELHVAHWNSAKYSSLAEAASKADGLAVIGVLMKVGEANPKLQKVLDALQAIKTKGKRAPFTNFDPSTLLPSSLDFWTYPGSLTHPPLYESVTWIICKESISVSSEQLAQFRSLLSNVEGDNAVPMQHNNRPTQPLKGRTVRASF
ASSAY_INFO: stopped-flow CO2 hydrase assay, hCA I
Format: biochemical
CONDITION_SET: mean from three determinations, errors 5–10%
PARAMETER: Ki

Please review the following examples before continuing.
CC(=O)c1ccccc1OCc1ccccc1 [Compound 52]
> 100 µM
O=C(O)c1ccccc1[S@+]([O-])Cc1ccccc1 [(R)-5]
> 100 µM
COC(=O)c1ccccc1S(=O)(=O)Cc1ccccc1 [Compound 9]
> 100 µM
O=C(O)c1ccccc1S(=O)(=O)Cc1ccccc1 [Compound 6]
> 100 µM

Proceed to the following item.
Any idea what its Ki is? The compound is CCCC[S+]([O-])c1ccccc1C(N)=O (centres unmarked) [Compound 34] > 100 µM

====

pKi overview
EXPERIMENTAL_SYSTEM: hCA II (Homo sapiens, UniProt P00918)
Construct: made in house
ASSAY_INFO: stopped-flow CO2 hydrase assay, hCA II
Type: biochemical
CONDITION_SET: mean from three determinations, errors 5–10%
pKi: −log10 of the molar value.

Please review the following examples before continuing.
CC(=O)c1ccccc1[S+]([O-])Cc1ccccc1 (centres unmarked)
4.20
CCCSc1ccccc1C(N)=O
4.04
NC(=O)c1ccccc1CCc1ccccc1
< 4.00

Any idea what its pKi is? The compound is O=C(O)c1ccccc1S(=O)(=O)Cc1ccccc1 < 4.00

Any idea what its pKi is? The compound is CNC(=O)c1ccccc1[S@@+]([O-])Cc1ccccc1 [(S)-20] 4.41

Any idea what its pKi is? The compound is CCCS(=O)(=O)c1ccccc1C(N)=O < 4.00

Any idea what its pKi is? The compound is CNC(=O)c1ccccc1[S@+]([O-])Cc1ccccc1 [(R)-20] 4.28

Any idea what its pKi is? The compound is COC(=O)c1ccccc1S(=O)(=O)Cc1ccc(Cl)cc1 4.40

Any idea what its pKi is? The compound is CC(=O)c1ccccc1OCc1ccccc1 < 4.00

Any idea what its pKi is? The compound is COC(=O)c1ccccc1[S@+]([O-])Cc1ccccc1 [(R)-8] 4.07

Any idea what its pKi is? The compound is O=C(Cc1ccccc1)Nc1ccccc1C(=O)O < 4.00

Any idea what its pKi is? The compound is NC(=O)c1ccccc1SCc1ccccc1 5.09

Any idea what its pKi is? The compound is CSc1ccccc1C(N)=O < 4.00

Any idea what its pKi is? The compound is O=C(O)c1ccccc1NCc1ccccc1 < 4.00

Any idea what its pKi is? The compound is CCC[S+]([O-])c1ccccc1C(N)=O (centres unmarked) < 4.00
